# Target Under Test: human liver TGH (Homo sapiens, UniProt P23141)
# Sequence (P23141 21-567 limits assumed): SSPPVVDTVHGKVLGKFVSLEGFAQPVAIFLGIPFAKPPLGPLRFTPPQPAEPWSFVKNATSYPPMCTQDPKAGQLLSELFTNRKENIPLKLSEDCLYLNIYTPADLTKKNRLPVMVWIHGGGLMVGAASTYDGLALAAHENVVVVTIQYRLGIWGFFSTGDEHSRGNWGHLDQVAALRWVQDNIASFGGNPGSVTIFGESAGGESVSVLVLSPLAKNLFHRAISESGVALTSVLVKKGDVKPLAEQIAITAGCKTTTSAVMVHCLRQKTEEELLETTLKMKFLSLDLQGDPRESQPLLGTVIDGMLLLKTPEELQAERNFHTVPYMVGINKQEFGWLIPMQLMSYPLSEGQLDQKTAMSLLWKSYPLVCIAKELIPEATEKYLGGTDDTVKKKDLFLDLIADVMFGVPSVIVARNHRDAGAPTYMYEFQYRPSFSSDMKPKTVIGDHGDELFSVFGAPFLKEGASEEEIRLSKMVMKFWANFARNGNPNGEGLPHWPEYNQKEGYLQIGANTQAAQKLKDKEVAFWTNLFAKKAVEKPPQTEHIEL
pIC50: −log10 of the molar value.

{"Structure Smiles": "Cc1cccc(NN=C(C(=O)c2cccs2)C(=O)C(F)(F)F)c1", "Target Under Test": "human liver TGH (Homo sapiens, UniProt P23141)", "pIC50": 8.40}

Cited source: patent US6861233B1
